- ASSAY_SYSTEM: GST-ANAC092(1-285) full length (Arabidopsis thaliana, UniProt Q9FKA0 1-285)
- Sequence: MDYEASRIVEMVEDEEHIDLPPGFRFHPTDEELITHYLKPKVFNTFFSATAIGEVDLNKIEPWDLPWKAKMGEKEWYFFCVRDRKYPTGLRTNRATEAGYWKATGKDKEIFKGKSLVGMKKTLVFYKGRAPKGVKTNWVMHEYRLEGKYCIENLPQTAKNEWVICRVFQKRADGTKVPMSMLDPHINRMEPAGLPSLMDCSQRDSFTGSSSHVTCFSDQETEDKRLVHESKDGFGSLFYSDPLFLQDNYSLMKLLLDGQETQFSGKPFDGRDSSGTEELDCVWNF
- PROCEDURE_SUMMARY: universal protein binding microarray (PBM); high values mean tight binding
- ASSAY_CONTEXT: protein: recombinant; tags: GST; chain copies: 2; dsDNA, one strand shown
PROPERTY: binding signal
Remember to quote the unit after the number.

Example results:
get_value(item= ACGCAAGT , readout=binding signal) returns 0.444 E-score

get_value(item= GACGTAAC , readout=binding signal) returns 0.4 E-score

get_value(item= GACACGCA , readout=binding signal) returns 0.455 E-score

get_value(item= AACGTAAG , readout=binding signal) returns 0.366 E-score

get_value(item= CCACACGC , readout=binding signal) returns 0.436 E-score

get_value(item= ACACGGCA , readout=binding signal) returns 0.481 E-score

// each sequence listed below needs its binding signal
1. CACGGAAG
2. AGACACGC
3. CCACGTAA
4. CACTCAAC
5. ACGTCTCC

Reply:
0.403 E-score
0.42 E-score
0.393 E-score
0.424 E-score
0.33 E-score

---

- ASSAY_SYSTEM: GST-ANAC019 NAC domain (Arabidopsis thaliana, UniProt Q9C932 14-162)
- Sequence: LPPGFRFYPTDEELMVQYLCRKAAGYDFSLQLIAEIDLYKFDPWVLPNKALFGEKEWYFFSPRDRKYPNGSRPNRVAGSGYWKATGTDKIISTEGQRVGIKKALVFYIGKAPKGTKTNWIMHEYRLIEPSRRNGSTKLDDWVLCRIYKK
- PROCEDURE_SUMMARY: universal protein binding microarray (PBM); transcription factors of Arabidopsis thaliana; high values mean tight binding
- ASSAY_CONTEXT: protein: recombinant; tags: GST; chain copies: 2; dsDNA, one strand shown
What binding signal was measured for each of the following?
Answers are plain numbers, in E-score.

Example results:
get_value(item= ACGTTAAC , readout=binding signal) returns 0.257

get_value(item= ACGCTAAC , readout=binding signal) returns 0.143

get_value(item= ATACGGCA , readout=binding signal) returns 0.361

get_value(item= ACAAGTAA , readout=binding signal) returns 0.125

get_value(item= AAGTAAAG , readout=binding signal) returns 0.107

get_value(item= AATGCCGT , readout=binding signal) returns 0.428

get_value(item= TGCGTACA , readout=binding signal) returns 0.307

get_value(item= AAATTGAC , readout=binding signal) returns 0.134

// each sequence listed below needs its binding signal
1. AAGTTACC
2. CACGTCAA

Reply:
1. 0.155
2. 0.38

// each sequence listed below needs its binding signal
1. AAACCCTC
2. TCACGCCA

Reply:
0.0591
0.223

Data origin, for the record: paper PMC4081100
